The measurements presented in this section are drawn from patent US9766239.

Form field: pKd (one value per entry).
Target: Norovirus surrogate virus-like particle, type GII.4 Minerva strain (human Norovirus GII.4 Minerva strain)
Experiment: direct ELISA on purified GII.4 nVLP
Where no end group is shown, it is not given here. scaffold 1571 = not defined here
Friendly reminder that pKd comes from taking -log10 of the concentration in mol/L.

Recorded results for 3 binders are shown here.
BINDER	pKd
VWARKNNKRKKDFNAGWGSC(scaffold 1571) (designed binder, reading uncertain; also: two peptides coupled by Cys to scaffold 1571 (dimer)) [nVLP53-53-1571]	9.00
VWARKNNSRSKDFNAGWGSC(scaffold 1571) (designed binder, reading uncertain; also: two peptides coupled by Cys to scaffold 1571 (dimer)) [nVLP55-55-1571]	8.05
RWHRVKLRSHTELNRYIGSC(scaffold 1571) (designed binder, reading uncertain; also: two peptides coupled by Cys to scaffold 1571 (dimer)) [nVLP92-92-1571]	8.52

Give the value of pKd reported for the following: AWARSNNSRSKAFNLGWGSC(scaffold 1571) (designed binder, reading uncertain; also: two peptides coupled by Cys to scaffold 1571 (dimer)) [nVLP81-81-1571] 8.52

Give the value of pKd reported for the following: DWARKNNKRKMNFNLGWGSC(scaffold 1571) (designed binder, reading uncertain; also: two peptides coupled by Cys to scaffold 1571 (dimer)) [nVLP60-60-1571] 8.70

Give the value of pKd reported for the following: RWVRVKLRSHTKLNRYIGSC(scaffold 1571) (designed binder, reading uncertain; also: two peptides coupled by Cys to scaffold 1571 (dimer)) [nVLP94-94-1571] 9.00

Give the value of pKd reported for the following: RWVRVKLRSHTELNRYIGSC(scaffold 1571) (designed binder, reading uncertain; also: two peptides coupled by Cys to scaffold 1571 (dimer)) [nVLP93-93-1571] 8.40

Give the value of pKd reported for the following: SWARSNNKRSKAFNLGWGSC(scaffold 1571) (designed binder, reading uncertain; also: two peptides coupled by Cys to scaffold 1571 (dimer)) [nVLP78-78-1571] 8.30
